Assay summary: The drug is tested on Providencia rettgeri strain: DSM1131 for biotransformation. The drug concentrations were measured before and after a 12-h incubation by liquid-chromatography-coupled mass spectrometry (LC–MS)
Format: ADME
Set-up: dose 2 uM, timepoint 0 vs 12 hours
Condition: 2 µM
Test readout: Bacterial Biotransformation

Molecule	Reading
CN1CCN(C2=Nc3ccccc3Oc3ccc(Cl)cc32)CC1.O=C(O)CCC(=O)O [LOXAPINE SUCCINATE]	Compound NOT metabolized
CN1CCN(C(=O)O[C@H]2c3nccnc3C(=O)N2c2ccc(Cl)cn2)CC1	Compound NOT metabolized
C=CC[C@@H]1/C=C(\C)C[C@H](C)C[C@H](OC)[C@H]2O[C@@](O)(C(=O)C(=O)N3CCCC[C@H]3C(=O)O[C@H](/C(C)=C/[C@@H]3CC[C@@H](O)[C@H](OC)C3)[C@H](C)[C@@H](O)CC1=O)[C@H](C)C[C@@H]2OC.O	Compound metabolized
O=c1n(CCCN2CCN(c3cccc(Cl)c3)CC2)nc2ccccn12	Compound NOT metabolized
O=C(NCc1ccccc1)OCCO [BURAMATE]	Compound NOT metabolized
CC(=O)OCC(=O)[C@@]12N=C(C)O[C@@H]1C[C@H]1[C@@H]3CCC4=CC(=O)C=C[C@]4(C)[C@H]3[C@@H](O)C[C@@]12C	Compound metabolized
CN(C)C(=O)Oc1cccc([N+](C)(C)C)c1.[Br-] [NEOSTIGMINE BROMIDE]	Compound NOT metabolized
O=P(O)(O)O.c1ccc(CN(CC2=NCCN2)c2ccccc2)cc1 [ANTAZOLINE PHOSPHATE]	Compound NOT metabolized
CC(=O)OCC(=O)[C@@]1(OC(C)=O)[C@@H](C)C[C@H]2[C@@H]3C[C@H](F)C4=CC(=O)C=C[C@]4(C)[C@@]3(F)[C@@H](O)C[C@@]21C [DIFLORASONE DIACETATE]	Compound metabolized
Nc1ccc(/N=N/c2ccccc2)c(N)n1	Compound NOT metabolized
Cc1ccc(S(=O)(=O)NC(=O)NN2CCCCCC2)cc1 [TOLAZAMIDE]	Compound NOT metabolized
COc1ccc2c(c1)c(CC(=O)O)c(C)n2C(=O)c1ccc(Cl)cc1	Compound NOT metabolized
CN(C)C(=O)C(CCN1CCC(O)(c2ccc(Cl)cc2)CC1)(c1ccccc1)c1ccccc1 [LOPERAMIDE]	Compound metabolized
CCc1nn(CCCN2CCN(c3cccc(Cl)c3)CC2)c(=O)n1CCOc1ccccc1	Compound NOT metabolized
CCN1CCCC1CNC(=O)c1cc(S(=O)(=O)CC)c(N)cc1OC (stereo not given) [AMISULPRIDE]	Compound NOT metabolized
Nc1nc(N)nc(-c2cc(Cl)ccc2Cl)n1.O=C(O)/C=C\C(=O)O [IRSOGLADINE MALEATE]	Compound NOT metabolized
CCN(CC)C(=O)C1(c2ccccc2)CC1CN (stereo not given)	Compound NOT metabolized
CN1C[C@H](C(=O)N[C@]2(C)O[C@@]3(O)[C@@H]4CCCN4C(=O)[C@H](Cc4ccccc4)N3C2=O)C=C2c3cccc4[nH]cc(c34)C[C@H]21.CN1C[C@H](C(=O)N[C@]2(C)O[C@@]3(O)[C@@H]4CCCN4C(=O)[C@H](Cc4ccccc4)N3C2=O)C=C2c3cccc4[nH]cc(c34)C[C@H]21.O=C(O)C(O)C(O)C(=O)O [ERGOTAMINE TARTRATE]	Compound metabolized
COc1ccc(CCN(C)CCCC(C#N)(c2ccc(OC)c(OC)c2)C(C)C)cc1OC (stereo not given)	Compound NOT metabolized
CCc1oc2ccccc2c1C(=O)c1cc(Br)c(O)c(Br)c1	Compound NOT metabolized
Cc1nc(Nc2ncc(C(=O)Nc3c(C)cccc3Cl)s2)cc(N2CCN(CCO)CC2)n1.O	Compound NOT metabolized
CC(C)c1nc(N(C)S(C)(=O)=O)nc(-c2ccc(F)cc2)c1/C=C/[C@@H](O)C[C@@H](O)CC(=O)[O-].CC(C)c1nc(N(C)S(C)(=O)=O)nc(-c2ccc(F)cc2)c1/C=C/[C@@H](O)C[C@@H](O)CC(=O)[O-].[Ca+2]	Compound NOT metabolized
Clc1cccc(Cl)c1N=C1NCCN1	Compound NOT metabolized
C#C[C@]1(O)CC[C@H]2[C@@H]3CCC4=Cc5oncc5C[C@]4(C)[C@H]3CC[C@@]21C	Compound metabolized
O=C(Nc1ccccc1)OCC(CN1CCCCC1)OC(=O)Nc1ccccc1 (stereo not given)	Compound NOT metabolized
O=C(O)c1cc(/N=N/c2ccc(S(=O)(=O)Nc3ccccn3)cc2)ccc1O	Compound NOT metabolized
CCCCc1nc(Cl)c(CO)n1Cc1ccc(-c2ccccc2-c2nn[nH]n2)cc1	Compound NOT metabolized
CC(=O)Oc1ccc(C(c2ccc(OC(C)=O)cc2)c2ccccn2)cc1	Compound metabolized
CC(=O)OCC(=O)NCCCOc1cccc(CN2CCCCC2)c1 [ROXATIDINE ACETATE]	Compound metabolized
COc1c2occc2cc2ccc(=O)oc12	Compound NOT metabolized

---

Assay summary: The drug is tested on Blautia hansenii strain: DSM20583 for biotransformation. The drug concentrations were measured before and after a 12-h incubation by liquid-chromatography-coupled mass spectrometry (LC–MS)
Condition: 2 µM
Test readout: Bacterial Biotransformation

                                   molecule                   reading
0  COc1ccc(CN2CCNCC2)c(OC)c1OC.Cl.Cl [TRIMETAZIDINE DIHYDROCHLORIDE]  Compound NOT metabolized
1  CN1CCC[C@@H]1CCO[C@](C)(c1ccccc1)c1ccc(Cl)cc1.O=C(O)/C=C/C(=O)O [CLEMASTINE FUMARATE]      Compound metabolized
2  CCN(CC)C(=O)C1(c2ccccc2)CC1CN (stereo not given)  Compound NOT metabolized
3  C#C[C@]1(OC(C)=O)CC[C@H]2[C@@H]3CCC4=C/C(=N/O)CC[C@@H]4[C@H]3CC[C@@]21CC [NORGESTIMATE]      Compound metabolized
4  CC(CN1c2ccccc2Sc2ccccc21)N(C)C (stereo not given) [PROMETHAZINE]  Compound NOT metabolized

---

Assay summary: The drug is tested on Coprococcus comes strain: ATCC27758 for biotransformation. The drug concentrations were measured before and after a 12-h incubation by liquid-chromatography-coupled mass spectrometry (LC–MS)
Assay type: ADME
Design: dose 2 uM, timepoint 0 vs 12 hours
Condition: 2 µM
Test readout: Bacterial Biotransformation

                                   compound                   reading
0  CCCCC(=O)N(Cc1ccc(-c2ccccc2-c2nnn[nH]2)cc1)[C@H](C(=O)O)C(C)C  Compound NOT metabolized
1  COc1cc(NC(C)CCCN)c2ncccc2c1.O=P(O)(O)O.O=P(O)(O)O (centres undefined) [PRIMAQUINE PHOSPHATE]  Compound NOT metabolized
2  C#C[C@]1(O)CC[C@H]2[C@@H]3CCC4=Cc5oncc5C[C@]4(C)[C@H]3CC[C@@]21C      Compound metabolized
3  CC(=O)O[C@]1(C(C)=O)CC[C@H]2[C@@H]3C=C(C)C4=CC(=O)CC[C@]4(C)[C@H]3CC[C@@]21C [MEGESTROL ACETATE]  Compound NOT metabolized
4     CC(=O)OCC(CCn1cnc2cnc(N)nc21)COC(C)=O  Compound NOT metabolized
5  Cc1ccc(S(=O)(=O)NC(=O)NN2CCCCCC2)cc1 [TOLAZAMIDE]  Compound NOT metabolized
6  CN1[C@@H]2CC[C@H]1C[C@@H](OC(=O)c1c[nH]c3ccccc13)C2  Compound NOT metabolized
7    CC(=O)Nc1ccc(OC(C)=O)cc1 [DIACETAMATE]      Compound metabolized
8    OCCOCCN1CCN(C2=Nc3ccccc3Sc3ccccc32)CC1  Compound NOT metabolized

---

Assay summary: The drug is tested on Bifidobacterium breve strain: DSM20213 for biotransformation. The drug concentrations were measured before and after a 12-h incubation by liquid-chromatography-coupled mass spectrometry (LC–MS)
Condition: 2 µM
Test readout: Bacterial Biotransformation

>>> print(df.to_string())
                                    compound                   reading
 0  Cc1nc2n(c(=O)c1CCN1CCC(c3noc4cc(F)ccc34)CC1)CCCC2      Compound metabolized
 1  COc1ccc(C(CN(C)C)C2(O)CCCCC2)cc1 (configuration not stated)  Compound NOT metabolized
 2  O=C(Nc1ccccc1)OCC(CN1CCCCC1)OC(=O)Nc1ccccc1 (configuration not stated)  Compound NOT metabolized
 3  O=C1C(CC[S+]([O-])c2ccccc2)C(=O)N(c2ccccc2)N1c1ccccc1 (configuration not stated)  Compound NOT metabolized
 4  COc1ccnc(C[S+]([O-])c2nc3ccc(OC(F)F)cc3[nH]2)c1OC (configuration not stated)      Compound metabolized
 5  OCCN1CCN(CCCN2c3ccccc3Sc3ccc(C(F)(F)F)cc32)CC1  Compound NOT metabolized
 6         CNCC[C@H](Oc1cccc2ccccc12)c1cccs1  Compound NOT metabolized
 7  Br.COc1ccc2c(c1)[C@]13CCCC[C@@H]1[C@H](C2)N(C)CC3.O [DEXTROMETHORPHAN HYDROBROMIDE]  Compound NOT metabolized
 8  CN(C(=O)CN(CCO)CC(=O)N(C)C(C)(C)Cc1ccccc1)C(C)(C)Cc1ccccc1  Compound NOT metabolized
 9  COc1cc2nc(N3CCN(C(=O)c4ccco4)CC3)nc(N)c2cc1OC  Compound NOT metabolized
10  O=C1N=C([O-])NC1(c1ccccc1)c1ccccc1.[Na+] [PHENYTOIN SODIUM]  Compound NOT metabolized
11  CCCCCNC(=N)N/N=C/c1c[nH]c2ccc(OC)cc12.O=C(O)/C=C\C(=O)O [TEGASEROD MALEATE]  Compound NOT metabolized
12                c1ccc2[nH]c(-c3cscn3)nc2c1  Compound NOT metabolized
13  Br.CN(C)CCCC1(c2ccc(F)cc2)OCc2cc(C#N)ccc21 (configuration not stated) [CITALOPRAM HYDROBROMIDE]  Compound NOT metabolized
14  CCOC(=O)[C@H](CCc1ccccc1)N[C@@H](C)C(=O)N1[C@H](C(=O)O)C[C@H]2CCCC[C@@H]21      Compound metabolized
15  CC(C)c1nc(CN(C)C(=O)N[C@H](C(=O)N[C@@H](Cc2ccccc2)C[C@H](O)[C@H](Cc2ccccc2)NC(=O)OCc2cncs2)C(C)C)cs1  Compound NOT metabolized
16  O=P1(N(CCCl)CCCl)NCCCO1 (configuration not stated) [CYCLOPHOSPHAMIDE ANHYDROUS]  Compound NOT metabolized
